test system: HL-60; assay: Cytotoxicity against human HL60 cells after 72 hrs by MTT assay; assay type: functional, cell-based; settings: HL-60, 72 h
// pIC50 lookup, one value per entry
Would you please state pIC50, meaning minus log10 of the concentration in mol/L, as a bare number?

| structure-smiles-string | study-target | pIC50 |
| --- | --- | --- |
| C=C1C[C@H]2[C@@H](CC[C@H]3C[C@@H](O[C@@H]4O[C@H](CO)[C@@H](O[C@@H]5O[C@@H](C)[C@H](O)[C@@H](O)[C@H]5O)[C@H](O)[C@H]4O[C@@H]4O[C@@H](C)[C@H](O)[C@@H](O)[C@H]4O)CC[C@@]32C)[C@@H]2C[C@@H]3O[C@]4(CC[C@@H](C)CO4)[C@@H](C)[C@@H]3[C@@]12C | HL-60 | 5.01 |

Attention now turns to another entry.
If you can, please state the reported pIC50 value of `C=C1C[C@H]2[C@@H](CC[C@H]3C[C@@H](O[C@@H]4O[C@H](COC(=O)C(C)(C)C)[C@@H](O)[C@H](OC(=O)C(C)(C)C)[C@H]4O)CC[C@@]32C)[C@@H]2C[C@@H]3O[C@]4(CC[C@@H](C)CO4)[C@@H](C)[C@@H]3[C@@]12C` .
4.80

* * *

tested on: HL-60; experiment: Cytotoxicity against human HL60 cells after 72 hrs by MTT assay; type: functional, cell-based; details: HL-60, 72 h
// IC50 lookup, one value per entry
Respond with the bare value in µM.

| structure-smiles-string | study-target | numeric-readout |
| --- | --- | --- |
| CO[C@H]1C[C@H]2[C@@H](CC[C@H]3C[C@@H](O[C@@H]4O[C@H](COC(=O)C(C)(C)C)[C@@H](O)[C@H](OC(=O)C(C)(C)C)[C@H]4O)CC[C@@]32C)[C@@H]2C[C@@H]3O[C@]4(CC[C@@H](C)CO4)[C@@H](C)[C@@H]3[C@@]12C | HL-60 | 21.5 |
| C[C@@H]1CC[C@@]2(OC1)O[C@H]1C[C@H]3[C@@H]4CC[C@H]5C[C@@H](O[C@@H]6O[C@H](COC(=O)C(C)(C)C)[C@@H](O)[C@H](OC(=O)C(C)(C)C)[C@H]6O)CC[C@]5(C)[C@H]4CC[C@]3(C)[C@H]1[C@@H]2C | HL-60 | 8.9 |
| CO[C@@H]1C[C@H]2[C@@H](CC[C@H]3C[C@@H](O[C@@H]4O[C@H](COC(=O)C(C)(C)C)[C@@H](O)[C@H](OC(=O)C(C)(C)C)[C@H]4O)CC[C@@]32C)[C@@H]2C[C@@H]3O[C@]4(CC[C@@H](C)CO4)[C@@H](C)[C@@H]3[C@@]12C | HL-60 | 19.2 |

If you can, please state the reported IC50 value of `C[C@@H]1CC[C@@]2(OC1)O[C@H]1C[C@H]3[C@@H]4CC[C@H]5C[C@@H](O[C@@H]6O[C@H](COC(=O)C(C)(C)C)[C@@H](O)[C@H](OC(=O)C(C)(C)C)[C@H]6O)CC[C@]5(C)C4=CC(=O)[C@]3(C)[C@H]1[C@@H]2C` .
5.9

* * *

// log10 IC50 lookup, one value per entry
tested on: HL-60; assay: Cytotoxicity against human HL60 cells after 72 hrs by MTT assay; assay type: functional, cell-based; details: HL-60, 72 h
Annotation: log10 of IC50, µM basis.

| structure-smiles-string | measurement-type | numeric-readout |
| --- | --- | --- |
| C[C@@H]1CC[C@@]2(OC1)O[C@H]1C[C@H]3[C@@H]4CC[C@H]5C[C@@H](O[C@@H]6O[C@H](COC(=O)C(C)(C)C)[C@@H](O)[C@H](OC(=O)C(C)(C)C)[C@H]6O)CC[C@]5(C)[C@H]4CC(=O)O[C@]3(C)[C@H]1[C@@H]2C | log10 IC50 | 1.00 |
| CO[C@H]1C[C@H]2[C@@H](CC[C@H]3C[C@@H](O[C@@H]4O[C@H](CO)[C@@H](O[C@@H]5O[C@@H](C)[C@H](O)[C@@H](O)[C@H]5O)[C@H](O)[C@H]4O[C@@H]4O[C@@H](C)[C@H](O)[C@@H](O)[C@H]4O)CC[C@@]32C)[C@@H]2C[C@@H]3O[C@]4(CC[C@@H](C)CO4)[C@@H](C)[C@@H]3[C@@]12C | log10 IC50 | 1.50 |
| CO[C@@H]1C[C@H]2[C@@H](CC[C@H]3C[C@@H](O[C@@H]4O[C@H](CO)[C@@H](O[C@@H]5O[C@@H](C)[C@H](O)[C@@H](O)[C@H]5O)[C@H](O)[C@H]4O[C@@H]4O[C@@H](C)[C@H](O)[C@@H](O)[C@H]4O)CC[C@@]32C)[C@@H]2C[C@@H]3O[C@]4(CC[C@@H](C)CO4)[C@@H](C)[C@@H]3[C@@]12C | log10 IC50 | 1.34 |
| C[C@@H]1CC[C@@]2(OC1)O[C@H]1C[C@H]3[C@@H]4CC[C@H]5C[C@@H](O[C@@H]6O[C@H](CO)[C@@H](O[C@@H]7O[C@@H](C)[C@H](O)[C@@H](O)[C@H]7O)[C@H](O)[C@H]6O[C@@H]6O[C@@H](C)[C@H](O)[C@@H](O)[C@H]6O)CC[C@]5(C)C4=CC(=O)[C@]3(C)[C@H]1[C@@H]2C | log10 IC50 | 1.48 |

If you can, please state the reported log10 IC50 value of `C[C@@H]1CC[C@@]2(OC1)O[C@H]1C[C@H]3[C@@H]4CC[C@H]5C[C@@H](O[C@@H]6O[C@H](CO)[C@@H](O[C@@H]7O[C@@H](C)[C@H](O)[C@@H](O)[C@H]7O)[C@H](O)[C@H]6O[C@@H]6O[C@@H](C)[C@H](O)[C@@H](O)[C@H]6O)CC[C@]5(C)[C@H]4CC[C@]3(C)[C@H]1[C@@H]2C` .
0.41

* * *

test: Cytotoxicity against human PBMC assessed as cell viability at 30 uM after 24 hrs by MTT assay relative to control; format: cell-based; conditions: PBMC (peripheral blood mononuclear cells), read-out: Activity
measurement-type: viability at 24 h, 30 µM

If you can, please state the reported viability at 24 h, 30 µM value of `C=C1C[C@H]2[C@@H](CC[C@H]3C[C@@H](O[C@@H]4O[C@H](CO)[C@@H](O[C@@H]5O[C@@H](C)[C@H](O)[C@@H](O)[C@H]5O)[C@H](O)[C@H]4O[C@@H]4O[C@@H](C)[C@H](O)[C@@H](O)[C@H]4O)CC[C@@]32C)[C@@H]2C[C@@H]3O[C@]4(CC[C@@H](C)CO4)[C@@H](C)[C@@H]3[C@@]12C` .
64.2%
